- ASSAY COMMENT: The drug is tested on Parabacteroides merdae strain: ATCC43184 for biotransformation. The drug concentrations were measured before and after a 12-h incubation by liquid-chromatography-coupled mass spectrometry (LC–MS)
- CONDITION: 2 µM
EXPERIMENTAL ENDPOINT: Bacterial Biotransformation

Below, each entry is followed by its recorded Bacterial Biotransformation result.
MOLECULE: CC(C)(C(=O)O)c1ccc(C(O)CCCN2CCC(C(O)(c3ccccc3)c3ccccc3)CC2)cc1 (stereo not drawn) [FEXOFENADINE]
Bacterial Biotransformation: Compound NOT metabolized

MOLECULE: C[C@@H]1CC[C@H]2[C@@H](C)C(=O)O[C@@H]3O[C@@]4(C)CC[C@@H]1[C@]32OO4
Bacterial Biotransformation: Compound metabolized

MOLECULE: O=C1CC2(CCCC2)CC(=O)N1CCCCN1CCN(c2ncccn2)CC1
Bacterial Biotransformation: Compound NOT metabolized

MOLECULE: COc1ccc(/C=C/C(=O)Nc2ccccc2C(=O)O)cc1OC
Bacterial Biotransformation: Compound NOT metabolized

MOLECULE: CCc1nc(N)nc(N)c1-c1ccc(Cl)cc1
Bacterial Biotransformation: Compound NOT metabolized

# molecule CCOc1ccc(NC(C)=O)cc1 ; its Bacterial Biotransformation = Compound NOT metabolized

# molecule CC(=O)O[C@H]1C(=O)[C@@]2(C)[C@H]([C@H](OC(=O)c3ccccc3)[C@]3(O)C[C@H](OC(=O)[C@H](O)[C@@H](NC(=O)c4ccccc4)c4ccccc4)C(C)=C1C3(C)C)[C@]1(OC(C)=O)CO[C@@H]1C[C@@H]2O ; its Bacterial Biotransformation = Compound NOT metabolized

Input O=C1[C@H](CC[C@H](O)c2ccc(F)cc2)[C@@H](c2ccc(O)cc2)N1c1ccc(F)cc1 . Output Bacterial Biotransformation: Compound NOT metabolized

The molecule listed as CCC1(c2ccc(N)cc2)CCC(=O)NC1=O (stereo not drawn) [AMINOGLUTETHIMIDE] shows Bacterial Biotransformation equal to Compound NOT metabolized

# Bacterial Biotransformation (molecule: C#C[C@]1(OC(C)=O)CC[C@H]2[C@@H]3CCC4=C[C@@H](OC(C)=O)CC[C@@H]4[C@H]3CC[C@@]21C [ETHYNODIOL DIACETATE] ) is Compound NOT metabolized

Briefly, Bacterial Biotransformation measured for COc1cc2nc(N3CCN(C(=O)c4ccco4)CC3)nc(N)c2cc1OC : Compound NOT metabolized

Lab note: Nc1nc2ccc(OC(F)(F)F)cc2s1 gave Bacterial Biotransformation of Compound NOT metabolized

Form: molecule = CC(C)c1c(CN(C)C(C)Cc2ccccc2)n(C)n(-c2ccccc2)c1=O (stereo not drawn) ; Bacterial Biotransformation = Compound metabolized

Per the records, this molecule ( Br.CN(C)CCCC1(c2ccc(F)cc2)OCc2cc(C#N)ccc21 (stereo not drawn) [CITALOPRAM HYDROBROMIDE] ) has Bacterial Biotransformation equal to Compound NOT metabolized

* * *

- ASSAY COMMENT: The drug is tested on Blautia luti strain: DSM14534 for biotransformation. The drug concentrations were measured before and after a 12-h incubation by liquid-chromatography-coupled mass spectrometry (LC–MS)
- Format: ADME
- Design: dose 2 uM, timepoint 0 vs 12 hours
- CONDITION: 2 µM

COMPOUND: CC(C)(C(=O)O)c1ccc(C(O)CCCN2CCC(C(O)(c3ccccc3)c3ccccc3)CC2)cc1 (stereo not drawn) [FEXOFENADINE]
Bacterial Biotransformation: Compound NOT metabolized
//
COMPOUND: C=CCc1ccccc1OCC(O)CNC(C)C (stereo not drawn)
Bacterial Biotransformation: Compound NOT metabolized
//
COMPOUND: Cc1ccccc1N1C(=O)c2cc(S(N)(=O)=O)c(Cl)cc2NC1C (stereo not drawn)
Bacterial Biotransformation: Compound NOT metabolized

The measured values listed here are drawn from ChEMBL document CHEMBL5303573.
